Test system: SKM MF
METHOD DESCRIPTION: SKM MF AC1.4: ATPase screen of skeletal sarcomeric proteins with PK/LDH coupled enzyme system
Type: biochemical
Design: unit not given here
CONDITION INFO: median
The following molecules are listed with their measured AC1.4 Median values.
Just the number, please, no unit attached.

molecule=C=C(C)c1c(Cl)cnc2nc(O)n(C(CC)CC)c12 result_number=1.8005

Next molecule, AC1.4 Median to be filled in.
Exercise: Entry under review: `COC(=O)N1CCN(C[C@@H](CC(C)C)n2c(O)nc3cc(Cl)cnc32)CC1` . Reported AC1.4 Median?
Key: 8.3875

###

Tested on: SKM MF
METHOD DESCRIPTION: SKM MF AC1.4: ATPase screen of skeletal sarcomeric proteins with PK/LDH coupled enzyme system
Type: biochemical
CONDITION INFO: median value (footnote †)
READOUT TYPE: SKM MF AC1.4 (μM)

These solved cases illustrate the format of a correct answer.
record_smiles=C#Cc1cnc2nc(O)n(C(CC)CC)c2c1 tested_on="SKM MF" result="0.1563^† μM"
record_smiles=C=Cc1cnc2nc(O)n(C(CC)CC)c2c1 tested_on="SKM MF" result="3.042^† μM"
record_smiles=CCc1cnc2nc(O)n(C(CC)CC)c2c1 tested_on="SKM MF" result="41.9678^† μM"

Exercise: Entry under review: `CCC(CC)n1c(O)nc2ncc(F)cc21` . Reported SKM MF AC1.4 (μM)?
Key: 12.9347^† μM

Exercise: Entry under review: `CCC(CC)Cn1c(O)nc2ncc(Cl)cc21` . Reported SKM MF AC1.4 (μM)?
Key: 25.237^† μM

Exercise: Entry under review: `CCC(CC)n1c(O)nc2ncc(SC)cc21` . Reported SKM MF AC1.4 (μM)?
Key: 13.796^† μM

###

System: SKM MF
METHOD DESCRIPTION: SKM MF AC1.4: ATPase screen of skeletal sarcomeric proteins with PK/LDH coupled enzyme system
Assay type: biochemical
Set-up: unit not given here
CONDITION INFO: median
Experimental: For example, test compounds can be assayed in a highly parallel fashion by using multiwell plates by placing the compounds either individually in wells or testing them in mixtures. Assay components including the target protein complex, coupling enzymes and substrates, and ATP can then be added to the wells and the absorbance or fluorescence of each well of the plate can be measured with a plate reader. In some embodiments, the method uses a 384 well plate format and a 25 μL reaction volume. […]
READOUT TYPE: AC1.4 Median
Just the number, please, no unit attached.

These solved cases illustrate the format of a correct answer.
compound=CCC(CC)n1c(O)nc2ncc(C(F)(F)F)cc21 readout_type="AC1.4 Median" result_number=47.6668
compound=CCC(CC)n1c(O)nc2nc(Cl)c(Cl)cc21 readout_type="AC1.4 Median" result_number=8.6854
compound=CC[C@@H](c1ccccc1)n1c(O)nc2ncc(Cl)cc21 readout_type="AC1.4 Median" result_number=6.3763
compound=C=Cc1cnc2nc(O)n(C(CC)CC)c2c1 readout_type="AC1.4 Median" result_number=3.0420
compound="CC(n1c(O)nc2ncc(Cl)cc21)C(C)(C)C (stereo not drawn)" readout_type="AC1.4 Median" result_number=28.0697
compound=CCC(CC)n1c(O)nc2ncc(Cl)c(/C=N\OCC(C)C)c21 readout_type="AC1.4 Median" result_number=22.4644
compound=CC(C)C[C@H](CO)n1c(O)nc2ncc(Cl)cc21 readout_type="AC1.4 Median" result_number=5.6431
compound=CCC(CC)n1c(O)nc2ncc(Br)cc21 readout_type="AC1.4 Median" result_number=1.1739
compound=CCCC(CCC)n1c(O)nc2ncc(Cl)cc21 readout_type="AC1.4 Median" result_number=3.7477
compound=CCC(CC)Cn1c(O)nc2ncc(Cl)cc21 readout_type="AC1.4 Median" result_number=25.2370

Exercise: Entry under review: `CCC(CC)n1c(O)nc2ncc(Cl)c(C3=CCN(C(=O)OC(C)(C)C)CC3)c21` . Reported AC1.4 Median?
Key: 26.7443

Exercise: Entry under review: `CC(C)(Cc1ccccc1)n1c(O)nc2ncc(Cl)cc21` . Reported AC1.4 Median?
Key: 8.2080

###

Test system: SKM MF
METHOD DESCRIPTION: SKM MF AC1.4: ATPase screen of skeletal sarcomeric proteins with PK/LDH coupled enzyme system
Type: biochemical
Set-up: unit not given here
CONDITION INFO: median
READOUT TYPE: AC1.4 Median

These solved cases illustrate the format of a correct answer.
record_smiles=CCC(CC)n1c(O)nc2nc(Br)c(Br)cc21 result=9.8768
record_smiles=CC[C@H](CCO)n1c(O)nc2ncc(Cl)cc21 result=7.7806
record_smiles=CCC(CC)n1c(O)nc2ncc(C)cc21 result=10.2517

Next compound, AC1.4 Median to be filled in.
Exercise: Entry under review: `CC[C@H](CN=[N+]=[N-])n1c(O)nc2ncc(Cl)cc21` . Reported AC1.4 Median?
Key: 11.2261

###

Tested on: SKM MF
METHOD DESCRIPTION: SKM MF AC1.4: ATPase screen of skeletal sarcomeric proteins with PK/LDH coupled enzyme system
Type: biochemical
Parameters: unit not given here
CONDITION INFO: median
READOUT TYPE: AC1.4 Median
Just the number, please, no unit attached.

molecule=CCC(CC)n1c(O)nc2ncc(Cl)c(/C=N\OCc3ccccc3)c21 result_number=42.0392
molecule=CCC(CC)(Cn1c(O)nc2ncc(Cl)cc21)c1ccccc1 result_number=11.0001
molecule="CCC(C(C)C)n1c(O)nc2ncc(Cl)cc21 (stereo not shown)" result_number=10.7918

Exercise: Entry under review: `Oc1nc2ncc(Cl)cc2n1[C@H](Cc1ccccc1)CN1CCOCC1` . Reported AC1.4 Median?
Key: 8.8149
